EXPERIMENTAL_SYSTEM: hNaV1.7 (Homo sapiens)
Construct: expressed in transfected cells; host or cells: HEK293
Sequence (Q15858 whole entry): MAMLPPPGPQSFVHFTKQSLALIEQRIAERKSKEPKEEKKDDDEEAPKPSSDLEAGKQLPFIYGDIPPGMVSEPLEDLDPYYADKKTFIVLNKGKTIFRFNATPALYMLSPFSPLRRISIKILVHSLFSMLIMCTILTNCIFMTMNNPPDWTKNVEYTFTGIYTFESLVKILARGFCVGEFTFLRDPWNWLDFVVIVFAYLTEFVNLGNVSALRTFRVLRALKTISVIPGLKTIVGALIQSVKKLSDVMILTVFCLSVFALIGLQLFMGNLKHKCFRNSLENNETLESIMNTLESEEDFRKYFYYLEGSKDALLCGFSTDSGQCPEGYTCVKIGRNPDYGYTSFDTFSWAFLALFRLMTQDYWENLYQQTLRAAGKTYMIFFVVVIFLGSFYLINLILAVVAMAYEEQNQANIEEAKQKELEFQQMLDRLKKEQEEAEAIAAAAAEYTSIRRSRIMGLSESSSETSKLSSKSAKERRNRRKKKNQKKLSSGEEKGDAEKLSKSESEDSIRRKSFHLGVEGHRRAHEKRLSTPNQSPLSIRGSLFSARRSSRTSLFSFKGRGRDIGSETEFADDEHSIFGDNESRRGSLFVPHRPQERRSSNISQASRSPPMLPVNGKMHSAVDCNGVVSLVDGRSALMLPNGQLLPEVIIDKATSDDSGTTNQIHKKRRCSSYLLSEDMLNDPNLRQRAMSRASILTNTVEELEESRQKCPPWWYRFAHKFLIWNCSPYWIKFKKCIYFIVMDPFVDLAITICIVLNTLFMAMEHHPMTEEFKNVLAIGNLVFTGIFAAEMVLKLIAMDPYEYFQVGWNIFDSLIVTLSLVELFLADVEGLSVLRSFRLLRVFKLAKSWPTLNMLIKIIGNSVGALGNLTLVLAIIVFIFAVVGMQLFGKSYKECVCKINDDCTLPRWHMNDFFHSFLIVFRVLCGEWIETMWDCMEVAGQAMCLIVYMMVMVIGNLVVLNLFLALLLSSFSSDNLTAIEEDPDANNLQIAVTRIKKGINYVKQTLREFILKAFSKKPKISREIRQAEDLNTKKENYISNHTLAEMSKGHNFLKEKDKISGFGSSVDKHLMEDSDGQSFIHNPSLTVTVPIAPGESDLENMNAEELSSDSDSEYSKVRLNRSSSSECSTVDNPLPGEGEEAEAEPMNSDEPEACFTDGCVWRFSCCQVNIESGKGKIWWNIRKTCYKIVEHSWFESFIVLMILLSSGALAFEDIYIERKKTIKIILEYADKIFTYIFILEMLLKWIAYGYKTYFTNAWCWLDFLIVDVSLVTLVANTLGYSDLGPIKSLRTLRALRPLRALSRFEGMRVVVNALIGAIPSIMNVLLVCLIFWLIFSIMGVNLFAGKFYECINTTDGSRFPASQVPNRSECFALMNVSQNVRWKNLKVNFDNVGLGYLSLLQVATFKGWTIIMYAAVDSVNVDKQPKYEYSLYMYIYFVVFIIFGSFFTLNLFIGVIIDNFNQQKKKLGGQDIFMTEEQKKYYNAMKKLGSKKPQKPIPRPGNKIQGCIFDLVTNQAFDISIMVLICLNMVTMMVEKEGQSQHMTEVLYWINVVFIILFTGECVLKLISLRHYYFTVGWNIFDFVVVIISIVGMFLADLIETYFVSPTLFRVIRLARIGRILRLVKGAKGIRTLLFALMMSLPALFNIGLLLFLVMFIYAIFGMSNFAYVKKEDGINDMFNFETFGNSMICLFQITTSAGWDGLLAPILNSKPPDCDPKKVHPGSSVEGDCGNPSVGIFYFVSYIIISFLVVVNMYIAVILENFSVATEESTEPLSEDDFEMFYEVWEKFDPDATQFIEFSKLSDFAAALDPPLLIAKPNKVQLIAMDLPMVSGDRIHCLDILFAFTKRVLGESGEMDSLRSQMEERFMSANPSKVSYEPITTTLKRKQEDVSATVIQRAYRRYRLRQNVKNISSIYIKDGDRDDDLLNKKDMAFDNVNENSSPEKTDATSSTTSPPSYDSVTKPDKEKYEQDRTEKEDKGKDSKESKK
MEASUREMENT_PROTOCOL: QPatch NaV1.7 assay (whole-cell patch clamp, QPatch16x)
Type: cell-based
MEASUREMENT_SETUP: holding voltage V1/2 SSI (half of channels inactivated), HEK293-hNaV1.7 cells, read-out: QP Nav1.7 SSI vhalf pIC50 (converted)
Counter-ions that a name gives are not always drawn.
PROPERTY: IC50 (µM)

Example entries and their recorded answers appear below.
{"COMPOUND": "CCOc1ccc(-c2ccnc([C@H]3CC[C@@]4(CCN(C)C4=O)N3)c2)cc1OCC [Example 190, hydrochloride]", "OBSERVED_RESULT": 100}
{"COMPOUND": "CC1(C)C[C@@]2(CC[C@H](c3cc(-c4ccc(C(F)(F)F)cc4)ccn3)N2)C(=O)N1 [Example 45, hydrochloride]", "OBSERVED_RESULT": 3.16}
{"COMPOUND": "CCOc1ccc(-c2ccnc([C@H]3CC[C@@]4(CCN(C)C4=O)N3)c2)cc1C [Example 167, hydrochloride]", "OBSERVED_RESULT": 39.8}
{"COMPOUND": "O=C1NCCC[C@@]12CC[C@H](c1cc(-c3ccc(F)cc3)ccn1)N2 [Example 111, hydrochloride]", "OBSERVED_RESULT": 63.1}
{"COMPOUND": "CCn1cc2cc(F)c(-c3ccnc([C@H]4CC[C@@]5(CCN(C)C5=O)N4)c3)cc2n1 [Example 259, hydrochloride]", "OBSERVED_RESULT": 1260}

(I) CCOc1cc(-c2ccnc([C@@H]3CC[C@@]4(CCN(C)C4=O)N3)c2)c(F)cc1F [Example 148, hydrochloride]
(II) CC(C)COc1ccc(F)c(-c2ccnc([C@H]3CC[C@@]4(CCN(C)C4=O)N3)c2)c1 [Example 253, hydrochloride]
## Input When the recorded IC50 values are compared, which is smaller: that of I or that of II ? Returns: label corresponding to the selected item.
## Output II
(II: 0.0794 µM, I: 31.6 µM)

(P) CCOc1ccc(F)c(-c2cc([C@@H]3CC[C@]4(CCN(C)C4=O)N3)nc(C)c2C)c1 [Example 143, hydrochloride]
(Q) COc1cnc([C@H]2CC[C@]3(CCN(C)C3=O)N2)cc1-c1ccc(C(F)(F)F)cc1 [Example 152, hydrochloride]
(R) Cc1c(-c2ccc(F)cc2)ccnc1[C@@H]1CC[C@]2(CCN(C)C2=O)N1 [Example 18, hydrochloride]
(S) CN1CC[C@@]2(CC[C@H](c3cc(-c4ccc(C(F)(F)F)cc4)ccn3)N2)C1=O [Example 52, hydrochloride]
## Input Descending sort on IC50 required. Could you list the labels in the order requested?
## Output R, Q, P, S
(R: 31.6 µM, Q: 15.8 µM, P: 10 µM, S: 6.31 µM)

(A) CC(Oc1ccc(F)c(-c2ccnc([C@H]3CC[C@@]4(CCN(C)C4=O)N3)c2)c1)C1CC1 (stereo partly shown) [Example 255, hydrochloride]
(B) CCS(=O)(=O)c1ccc(-c2cc(C)nc([C@@H]3CC[C@]4(CCN(C)C4=O)N3)c2)cc1 [Example 210, hydrochloride]
## Input When the recorded IC50 values are compared, which is smaller: that of A or that of B ? Returns: label corresponding to the selected item.
## Output A
